targetSystem: human Farnesoid X Receptor (FXR) ligand binding domain (GST-FXR LBD) (Homo sapiens)
testName: Human GST-FXR LBD co-activator interaction assay (FXR HTRF assay)
measurementContext: ligand-dependent interaction of GST-FXR LBD with biotin-labeled SRC-1 peptide, response relative to GW4064, read-out: FXR coactivator interaction assay (HTRF)
endpoint: EC50 (nM)

[A] CC(C)NC(=O)CN(Cc1cc(F)ccc1F)C(=O)c1nn(C)c2c1COc1ccc(Cl)cc1-2 [Compound 26]
[B] Cn1nc(C(=O)N(CC(=O)NC[C@@H]2CCCO2)Cc2ccccc2F)c2c1-c1cc(Cl)ccc1OC2 [Compound 21]
[C] CC(C)NC(=O)CN(Cc1cccc(F)c1)C(=O)c1nn(C)c2c1COc1ccc(Cl)cc1-2 [Compound 15]
[in] Arrange these compounds by their EC50, starting with the largest number. Return the labels ranked in the requested order, please.
[out] B, A, C

---

targetSystem: human Farnesoid X Receptor (FXR) ligand binding domain (GST-FXR LBD) (Homo sapiens, UniProt Q96RI1)
Sequence (Q96RI1 193-472 isoform Q96RI1-2): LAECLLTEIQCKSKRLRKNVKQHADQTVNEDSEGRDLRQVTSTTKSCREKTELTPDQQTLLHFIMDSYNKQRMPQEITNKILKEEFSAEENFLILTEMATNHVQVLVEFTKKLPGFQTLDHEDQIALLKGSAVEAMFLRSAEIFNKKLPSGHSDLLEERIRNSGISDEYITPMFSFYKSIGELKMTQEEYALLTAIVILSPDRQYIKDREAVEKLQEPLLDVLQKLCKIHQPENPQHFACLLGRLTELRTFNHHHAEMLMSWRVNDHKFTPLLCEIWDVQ
testName: Human GST-FXR LBD co-activator interaction assay (FXR HTRF assay)
measurementContext: ligand-dependent interaction of GST-FXR LBD with biotin-labeled SRC-1 peptide, response relative to GW4064, read-out: FXR coactivator interaction assay (HTRF)
Description: Human GST-FXR LBD Co-Activator Interaction Assay The FXR HTRF assay is a biochemical assay measuring the interaction between FXR and a coactivator protein (SRC1). […] Recombinant human Farnesoid X Receptor (FXR) ligand binding domain (amino acids 193-472) fused to glutathione S-transferase (GST) purified protein (GST-FXR LBD) was purchased (Invitrogen). […] Plates are incubated at room temperature in the dark for 2.5 hrs before reading on an Envision (PerkinElmer) at 665 nm and 590 nm. […]
endpoint: EC50 (µM)

Sample answers from the record:
{"compound": "CNS(=O)(=O)c1ccc(CN(Cc2ccccc2)C(=O)c2nn(C)c3c2COc2ccc(Cl)cc2-3)cc1 [Compound 54]", "valueUnits": "µM", "testValue": 0.266}
{"compound": "CC(C)NC(=O)CN(Cc1cccc(F)c1F)C(=O)c1nn(C)c2c1COc1ccc(Cl)cc1-2 [Compound 42]", "valueUnits": "µM", "testValue": 0.631}
{"compound": "CC(C)NC(=O)CN(Cc1ccccc1F)C(=O)c1nn(C)c2c1COc1ccc(Cl)cc1-2 [Compound 29]", "valueUnits": "µM", "testValue": 0.197}

[A] CC(C)C(=O)NCCN(Cc1ccccc1)C(=O)c1nn(C)c2c1COc1ccc(Br)cc1-2 [Compound 68]
[B] CC(C)NC(=O)CN(Cc1cc(F)cc(F)c1)C(=O)c1nn(C)c2c1COc1ccc(Br)cc1-2 [Compound 13]
[in] I'd appreciate it if you could identify which of A and B has the greater EC50. Your choice should be expressed through its label.
[out] B
(B: 0.034 µM, A: 0.022 µM)

[P] Cn1nc(C(=O)N(CC(=O)NCC(O)C(F)(F)F)Cc2ccccc2F)c2c1-c1cc(Cl)ccc1OC2 (centres unmarked) [Compound 44]
[Q] Cn1nc(C(=O)N(CC(=O)NCC2(O)CC2)Cc2ccccc2F)c2c1-c1cc(Cl)ccc1OC2 [Compound 48]
[R] Cn1nc(C(=O)N(CC(=O)NCC2CCCOC2)Cc2ccccc2F)c2c1-c1cc(Cl)ccc1OC2 (centres unmarked) [Compound 32]
[S] Cn1nc(C(=O)N(CC(=O)NCC2CC2)Cc2ccccc2F)c2c1-c1cc(Br)ccc1OC2(C)C [Compound 78]
[T] Cn1nc(C(=O)N(CC(=O)NCC2CCOCC2)Cc2ccccc2F)c2c1-c1cc(Cl)ccc1OC2 [Compound 82]
[in] Please list these compounds in decreasing order of EC50. Return the labels ranked in the requested order, please.
[out] S, R, T, Q, P
(S: 2.23 µM, R: 0.376 µM, T: 0.178 µM, Q: 0.075 µM, P: 0.008 µM)

[a] CCNC(=O)CN(Cc1ccccc1F)C(=O)c1nn(C)c2c1COc1ccc(Cl)cc1-2 [Compound 17]
[b] Cn1nc(C(=O)N(CC(=O)NCCC(F)(F)F)Cc2ccccc2F)c2c1-c1cc(Cl)ccc1OC2 [Compound 4]
[in] I'd appreciate it if you could identify which of a and b has the greater EC50. Your choice should be expressed through its label.
[out] a
(a: 0.054 µM, b: 0.011 µM)

[I] Cn1nc(C(=O)N(CC(=O)NC2CCS(=O)(=O)C2)Cc2ccccc2F)c2c1-c1cc(Cl)ccc1OC2 (centres unmarked) [Compound 39]
[II] Cn1nc(C(=O)N(CC(=O)NC(C)(C)C)Cc2cccc(F)c2)c2c1-c1cc(Cl)ccc1OC2 [Compound 14]
[in] I'd appreciate it if you could identify which of I and II has the greater EC50. Your choice should be expressed through its label.
[out] I
(I: 0.482 µM, II: 0.058 µM)
